# PROTOCOL_SUMMARY: Displacement of thiazole orange from RNA A by fluorescent intercalator displacement assay
pKd: −log10 of the molar value. Square brackets hold non-standard residues; d marks the D form. Peptide text beside a SMILES is read from it. * marks the point of attachment. X1 = C=CCc1ccc(-c2cc(Nc3ccc(CN)cc3)c3cccc(C(=O)*)c3n2)cc1; X2 = C=CCc1ccc(-c2cc(Nc3ccccc3)c3cccc(C(=O)*)c3n2)cc1; AllylGly = C=CC[C@H](N)C(=O)O; Dap = NC[C@H](N)C(=O)O
If the reported pKd equals or exceeds 5, assign yes (1). If not, assign no (0).

[[record]]
compound = "CC(C)C[C@@H]1NC(=O)[C@H](CCCNC(=N)N)NC(=O)c2cccc3c(Nc4ccccc4)cc(nc23)-c2ccc(cc2)C/C=C/C[C@@H](C(N)=O)NC(=O)[C@H](CC(N)=O)NC1=O"
group_label = "yes (1)"

[[record]]
compound = "NCCCC[C@H]1NC(=O)[C@@H](Cc2ccccc2)NC(=O)[C@H](CN)NC(=O)c2cccc3c(Nc4ccc(CN)cc4)cc(nc23)-c2ccc(cc2)C/C=C/C[C@@H](C(N)=O)NC1=O"
group_label = "yes (1)"

[[record]]
compound = "N=C(N)NCCC[C@@H]1NC(=O)c2cccc3c(Nc4ccccc4)cc(nc23)-c2ccc(cc2)C/C=C/C[C@@H](C(N)=O)NC1=O"
group_label = "yes (1)"

[[record]]
compound = "NCCCC[C@H]1NC(=O)[C@H](Cc2ccccc2)NC(=O)[C@H](CN)NC(=O)c2cccc3c(Nc4ccc(CN)cc4)cc(nc23)-c2ccc(cc2)C/C=C/C[C@@H](C(N)=O)NC1=O"
group_label = "yes (1)"

[[record]]
compound = "NCCCC[C@@H]1NC(=O)[C@H](CN)NC(=O)c2cccc3c(Nc4ccc(CN)cc4)cc(nc23)-c2ccc(cc2)C/C=C/C[C@@H](C(N)=O)NC(=O)CNC1=O"
group_label = "yes (1)"

[[record]]
compound = "C=CCc1ccc(-c2cc(Nc3ccccc3)c3cccc(C(=O)N[C@@H](CCCNC(=N)N)C(=O)N[C@H](CC(C)C)C(=O)N[C@H](CC(C)C)C(=O)N[C@@H](CC=C)C(N)=O)c3n2)cc1"
group_label = "no (0)"

[[record]]
compound = "C=CCc1ccc(-c2cc(Nc3ccccc3)c3cccc(C(=O)N[C@@H](CCCNC(=N)N)C(=O)N[C@@H](CC(N)=O)C(=O)N[C@@H](CC(N)=O)C(=O)N[C@@H](CC=C)C(N)=O)c3n2)cc1 (X2-RNN[AllylGly]-NH2)"
group_label = "no (0)"

[[record]]
compound = "NC[C@@H]1O[C@H](O[C@H]2[C@@H](O)[C@H](O[C@H]3[C@@H](O)[C@H](N)C[C@H](N)[C@H]3O[C@H]3O[C@H](CN)[C@@H](O)[C@H](O)[C@H]3N)O[C@@H]2CO)[C@H](N)[C@@H](O)[C@@H]1O"
group_label = "no (0)"

[[record]]
compound = "C=CCc1ccc(-c2cc(Nc3ccc(CN)cc3)c3cccc(C(=O)N[C@@H](CN)C(=O)N[C@@H](CCCCN)C(=O)NCC(=O)N[C@@H](CC=C)C(N)=O)c3n2)cc1 (X1-[Dap]KG[AllylGly]-NH2)"
group_label = "yes (1)"


The reported numbers originate from ChEMBL document CHEMBL1144220.
